system: MCF-7 cells; experiment: MCF-7 GI50 determination (crystal violet growth inhibition); assay type: cell-based, human; details: Homo sapiens, MCF7, 96 h, read-out: MCF-7 Cells GI50 (nM)
Please go through the items and note down their GI50.
Answer in nM, number only, no unit symbol.

Challenge: So what does the record say about GI50 for CC[C@]1(O)C[C@H]2CN(CCc3c([nH]c4ccc(-c5cccc(F)c5)cc34)[C@@](C(=O)OC)(c3cc4c(cc3OC)N(C)[C@H]3[C@@](O)(C(=O)OC)[C@H](OC(C)=O)[C@]5(CC)C=CCN6CC[C@]43[C@@H]65)C2)C1 ?
Response given: 300

Challenge: GI50 for CC[C@]1(O)C[C@H]2CN(CCc3c([nH]c4ccc(CCC(C)C)cc34)[C@@](C(=O)OC)(c3cc4c(cc3OC)N(C=O)[C@H]3[C@@](O)(C(=O)OC)[C@H](OC(C)=O)[C@]5(CC)C=CCN6CC[C@]43[C@@H]65)C2)C1 ?
Response given: 300

Challenge: Which GI50 is reported for this compound? CC[C@]1(O)C[C@H]2CN(CCc3c([nH]c4ccc(SCc5ccc(OC)cc5)cc34)[C@@](C(=O)OC)(c3cc4c(cc3OC)N(C)[C@H]3[C@@](O)(C(=O)OC)[C@H](OC(C)=O)[C@]5(CC)C=CCN6CC[C@]43[C@@H]65)C2)C1
Response given: 50

Challenge: Using the record for CC[C@]1(O)C[C@H]2CN(CCc3c([nH]c4ccc(C(=O)CC(C)C)cc34)[C@@](C(=O)OC)(c3cc4c(cc3OC)N(C=O)[C@H]3[C@@](O)(C(=O)OC)[C@H](OC(C)=O)[C@]5(CC)C=CCN6CC[C@]43[C@@H]65)C2)C1 , report its GI50.
Response given: 100
